# ASSAY INFO: Liver S9 binding by equilibrium dialysis
# TEST SETTINGS: human, human liver S9, %Recovery, human liver S9 binding, MEAN, n 4
ENDPOINT NAME: recovery at 6 h (%)
Only the number, expressed in %, is required.

COc1cccc2[nH]c(C(=O)N[C@@H](CC(C)C)C(=O)N[C@@H](C[C@@H]3CCNC3=O)C(=O)COP(=O)(O)O)cc12 [PF-07304814] yielded recovery at 6 h of 94

* * *

# Tested on: CYP3A4/5
# ASSAY INFO: in vitro
# TEST SETTINGS: human, microsomes, pH 7.4, Percent of Control Activity, CYP 3A4/5 (mdz), 39.8 µM, 30-Minute Preincubation
ENDPOINT NAME: activity at 39.8 µM (%)
Response body: numeric value in %, unit text excluded.

COc1cccc2[nH]c(C(=O)N[C@@H](CC(C)C)C(=O)N[C@@H](C[C@@H]3CCNC3=O)C(=O)COP(=O)(O)O)cc12 [PF-07304814] yielded activity at 39.8 µM of 97

* * *

# TEST TARGET: CYP2C9 (Homo sapiens, UniProt P11712)
# Sequence (P11712 whole entry): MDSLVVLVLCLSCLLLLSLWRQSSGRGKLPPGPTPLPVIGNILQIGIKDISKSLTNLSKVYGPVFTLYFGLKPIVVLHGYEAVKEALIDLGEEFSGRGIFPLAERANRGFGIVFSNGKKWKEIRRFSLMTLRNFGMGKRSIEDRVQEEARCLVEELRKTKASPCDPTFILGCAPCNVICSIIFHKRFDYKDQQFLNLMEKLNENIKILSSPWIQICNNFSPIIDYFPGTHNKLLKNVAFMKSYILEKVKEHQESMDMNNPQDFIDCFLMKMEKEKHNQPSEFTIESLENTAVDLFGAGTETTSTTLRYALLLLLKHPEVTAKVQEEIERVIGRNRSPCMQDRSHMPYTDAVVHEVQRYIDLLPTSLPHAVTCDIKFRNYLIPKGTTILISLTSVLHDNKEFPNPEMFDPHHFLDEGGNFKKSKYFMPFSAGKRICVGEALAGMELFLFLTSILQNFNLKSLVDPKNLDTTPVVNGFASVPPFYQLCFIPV
# ASSAY INFO: Reversible CYP inhibition in human liver microsomes
# TEST SETTINGS: human, microsomes, pH 7.4, Percent of Control Activity, CYP 2C9, 93.5 µM, 30-Minute Preincubation
ENDPOINT NAME: activity at 93.5 µM
Include the unit after the number when you answer.

Per the records, this compound ( COc1cccc2[nH]c(C(=O)N[C@@H](CC(C)C)C(=O)N[C@@H](C[C@@H]3CCNC3=O)C(=O)CO)cc12 ) has activity at 93.5 µM equal to 92%

* * *

# ASSAY INFO: Plasma protein binding by equilibrium dialysis
# TEST SETTINGS: monkey, plasma, pH 7.4, Plasma fu, Vdss input
ENDPOINT NAME: fraction unbound at 6 h

Lab note: measured fraction unbound at 6 h of COc1cccc2[nH]c(C(=O)N[C@@H](CC(C)C)C(=O)N[C@@H](C[C@@H]3CCNC3=O)C(=O)CO)cc12 [PF-00835231] was 0.441

* * *

# TEST TARGET: CYP2B6 (Homo sapiens)
# Sequence (P20813 whole entry): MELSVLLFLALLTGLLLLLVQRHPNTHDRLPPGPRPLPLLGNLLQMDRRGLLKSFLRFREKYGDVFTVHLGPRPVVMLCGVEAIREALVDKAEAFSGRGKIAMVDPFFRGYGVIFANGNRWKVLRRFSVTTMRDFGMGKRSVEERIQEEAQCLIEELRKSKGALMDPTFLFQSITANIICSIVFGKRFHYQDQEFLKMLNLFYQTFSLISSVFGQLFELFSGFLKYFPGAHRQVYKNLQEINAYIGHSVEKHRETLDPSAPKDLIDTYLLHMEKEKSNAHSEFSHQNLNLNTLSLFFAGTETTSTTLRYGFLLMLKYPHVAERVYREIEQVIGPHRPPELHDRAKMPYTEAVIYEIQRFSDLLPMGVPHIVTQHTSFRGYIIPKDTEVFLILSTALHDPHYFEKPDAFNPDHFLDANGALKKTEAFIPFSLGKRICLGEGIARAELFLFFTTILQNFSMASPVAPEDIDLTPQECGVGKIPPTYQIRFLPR
# ASSAY INFO: Reversible CYP inhibition in human liver microsomes
# Assay type: in vitro ADME
# TEST SETTINGS: human, human liver microsomes, pH 7.4, CYP 2B6, 0.1 µM, 30-Minute Preincubation; read-out: Percent of Control Activity
ENDPOINT NAME: activity at 0.1 µM (%)
Numbers only; they are read as %.

Given item COc1cccc2[nH]c(C(=O)N[C@@H](CC(C)C)C(=O)N[C@@H](C[C@@H]3CCNC3=O)C(=O)CO)cc12 [PF-00835231] , the value recorded as its activity at 0.1 µM is 102

* * *

Each entry below carries its recorded half-life.
# ASSAY INFO: Monkey pharmacokinetic study
# TEST SETTINGS: male, cynomolgus monkey, plasma, iv, Terminal T1/2, monkey IV (n=2, range); PF-07304814 […], PF-00835231 1.0mg/kg
Write the figure, then the unit, nothing else.

COc1cccc2[nH]c(C(=O)N[C@@H](CC(C)C)C(=O)N[C@@H](C[C@@H]3CCNC3=O)C(=O)CO)cc12 ... 1.2 h

Please turn your attention to the following entry.
half-life reported for this compound COc1cccc2[nH]c(C(=O)N[C@@H](CC(C)C)C(=O)N[C@@H](C[C@@H]3CCNC3=O)C(=O)COP(=O)(O)O)cc12 : 2.6 h
